# Test system: HCC-2998 colon
# assay.details: NCI tumour cell line growth inhibition, 48 h
This section presents compounds with their documented TGI values.
Give your result in µM as a bare value.

// below: answered compounds
{"columns": ["compound", "TGI [µM]"],
 "data": [
  ["COc1ccc2sc3c(NCCCNCCO)nc4ccccc4c3c(=O)c2c1", 3.29],
  ["CC(C)=CCC/C(C)=C/CC/C(C)=C/CSc1ccc(Cl)cc1C(=O)O", 34.7],
  ["CC1(C)CC[C@]2(C(=O)O)CC[C@]3(C)[C@H](CC[C@@H]4[C@@]5(C)CCC(=O)C(C)(C)[C@@H]5CC[C@]43C)[C@H]2[C@H]1OC(=O)C(F)(F)F", 22.8],
  ["O=C1C(CN2CCCC2)CCCC1CN1CCCC1 (stereo unspecified)", 34.3],
  ["CCOC(=O)O/N=C1/C(c2c(O)[nH]c3ccccc23)=Nc2ccccc21", 6.46]
]}

# input compound: CN(C)CCCC(=O)Nc1ccc(Cn2nnc3c2C(=O)c2nnn(Cc4ccc(NC(=O)CCCN(C)C)cc4)c2C3=O)cc1 ; wanted: its TGI
5.22

Request: Cc1ccc(CC(=O)Nc2ccc(NC(=O)CNC(=O)/C=C/c3ccc(-c4ccccc4)cc3)cc2C(=O)c2ccccc2)cc1
4.98

Request: CN(C)CCNC(=O)c1cccc2c1nc(-c1ccccn1)c1ccccc12
32.4

Request: COc1cccc2c(Nc3ccc(C(=O)NCCN(C)C)cc3)cc(-c3ccccc3)nc12
24.9

Request: CC(C)(C)c1nnc2n(c1=O)N=CC(c1ccc(Br)cc1)S2 (stereo unspecified)
56.7

###

# Tested on: SF-539 CNS
# assay.details: NCI tumour cell line growth inhibition, 48 h; in the data active = GI50 below about 0.43 µM; inactive = the rest
Permitted responses: active, inactive

Example cases with answers are listed next.
{"columns": ["molecule", "label.value"],
 "data": [
  ["COC(=O)[C@H](Cc1ccccc1)NC(=O)[C@@H](OC)[C@@H]1Cc2cc3cc(OC4CC(OC5CC(O)C(O)C(C)O5)C(O)C(C)O4)c(C)c(O)c3c(O)c2C(=O)[C@H]1OC1CC(OC2CC(OC3CC(C)(O)C(O)C(C)O3)C(O)C(C)O2)C(O)C(C)O1 (stereo partly drawn)", "active"],
  ["CC(=O)OC1=C2C(CC3C4CC=C5CC(OC(C)=O)CCC5(C)C4CCC23C)C2C(=O)N(Cc3ccccc3)C(=O)C2C1 (stereo not drawn)", "inactive"],
  ["C=C1C(=O)O[C@H]2[C@H]1CC/C(COC(=O)C(=O)c1cn(C)c3ccc(OC)cc13)=C\\CC[C@@]1(C)O[C@@H]21", "inactive"]
]}

I would be grateful if you could indicate the recorded call for Oc1ccc(-c2nc3ccc4[nH]ncc4c3c3c2CCCC3)c2cccnc12 .
active

Request: CCOC(=O)c1cnc2c(cnn2CC)c1NN=C(C)C
inactive

###

# System: UACC-257 melanoma
# assay.details: NCI tumour cell line growth inhibition, 48 h
reported.metric: GI50

// below: answered compounds
{"columns": ["compound", "target.or.system", "reported.metric", "assay.value"],
 "data": [
  ["COC1CCC(n2c([C@@H]3CCCC(=O)N3c3ccc(F)c(F)c3)nc3cc(-c4c(C)noc4C)ccc32)CC1 (some centres undefined)", "UACC-257 melanoma", "GI50", "2.54 µM"],
  ["COc1ccc2c(c1)C(=O)c1c-2n(CCCCl)c(=O)c2cc(N(C)C)ccc12", "UACC-257 melanoma", "GI50", "43 µM"],
  ["Clc1ccc(-c2cn(-c3ccccc3)c(-c3ccccc3)n2)c(Cl)c1", "UACC-257 melanoma", "GI50", "> 22.8 µM"]
]}

# input compound: CN1CCN(c2cc(Nc3cc(C4CC4)[nH]n3)nc(Nc3ccc(CC(=O)NCc4cccc(F)c4)cc3)n2)CC1 ; wanted: its GI50
1.13 µM

Request: CC(C)(C)n1cc(-c2ccnc(NCCNS(=O)(=O)c3cccc4ccccc34)c2)c(-c2cccc(F)c2)n1
25 µM

Request: CN(C)CCCC(=O)Nc1ccc(Cn2nnc3c2C(=O)c2nnn(Cc4ccc(NC(=O)CCCN(C)C)cc4)c2C3=O)cc1
3.25 µM

###

# Test system: HOP-92 NSCLC
# assay.details: NCI tumour cell line growth inhibition, 48 h
Label rule, in plain words: TGI of 7 µM and up is Condition met, under 7 µM is Condition not met.

{"columns": ["molecule", "label.value"],
 "data": [
  ["O=C1c2ccccc2C2(O)Oc3cccc(O)c3C12O (stereo unspecified)", "Condition met"],
  ["CC(C)(C)OC(=O)NCCNC(=O)CN(CC(=O)O)C1CCCCC1N(CC(=O)O)CC(=O)O (stereo unspecified)", "Condition met"],
  ["OC(C(=Nc1ccccc1)c1ccccc1)c1ccccc1 (stereo unspecified)", "Condition met"],
  ["C1=C[C@]2(CCC13OCCO3)COc1ccccc12", "Condition met"]
]}

I'd appreciate it if you could say whether Cc1ccnc2sc3ccccc3c(=O)c12 has TGI at least equal to 7 µM.
Condition met

Request: O=C(O)C(CO)NC(=O)C1C(C(=O)O)C(c2ccccc2[N+](=O)[O-])C=C(c2ccco2)N1c1ccncc1 (stereo unspecified)
Condition met

Request: Cn1c(=O)c2[nH]c(-n3nc(-c4ccccc4)cc3N)nc2n(C)c1=O
Condition met

Request: COc1cccc(C2C(C#N)=C(N)Oc3cc(OC)ccc32)c1 (stereo unspecified)
Condition met

Request: CC(C)(C)c1nnc2n(c1=O)N=CC(c1ccc(Br)cc1)S2 (stereo unspecified)
Condition met

Request: COc1ccc(/C=C/C(c2cc(OC)c(OC)c(OC)c2)n2cncn2)cc1O (stereo unspecified)
Condition met

Request: O=C1C(=O)c2c(nc3ncccn23)-c2ccccc21
Condition not met

###

# Test system: UACC-62 melanoma
# assay.details: NCI tumour cell line growth inhibition, 48 h
reported.metric: log10 TGI (log10 of the value in µM)
Record value = log10 of TGI given in µM.

// below: answered molecules
{"columns": ["molecule", "log10 TGI"],
 "data": [
  ["COC(=O)c1cc2c(cc1Cl)SC(N(N(C)C)S(=O)(=O)c1ccc(Cl)cc1)=NS2(=O)=O", 1.55],
  ["NC(CNc1ccc(O)cc1)C(=O)O (stereo unspecified)", 1.69],
  ["CCCCNCC(O)c1cc(-c2ccc(C(F)(F)F)cc2)nc(-c2ccc(C(F)(F)F)cc2)c1 (stereo unspecified)", 0.56],
  ["O=C(NNCc1ccccc1O)c1ccccc1O", 1.75],
  ["CC(C)[C@@H](CS(=O)(=O)C(C)C)N1C(=O)[C@@](C)(CC(=O)O)C[C@H](c2cccc(Cl)c2)[C@H]1c1ccc(Cl)cc1", 1.05]
]}

Okay, now this molecule:
# input molecule: COc1ccc2sc3c(NCCCNCCO)nc4ccccc4c3c(=O)c2c1 ; wanted: its log10 TGI
0.50

###

# System: NCI-H522 lung
# assay.details: NCI tumour cell line growth inhibition, 48 h
reported.metric: GI50

// below: answered compounds
{"columns": ["compound", "target.or.system", "reported.metric", "assay.value"],
 "data": [
  ["CC(=O)OC1=C2C(CC3C4CC=C5CC(OC(C)=O)CCC5(C)C4CCC23C)C2C(=O)N(Cc3ccccc3)C(=O)C2C1 (configuration not stated)", "NCI-H522 lung", "GI50", "7.29 µM"],
  ["COc1ccc(C(=O)N/N=C/c2ccc(O)cc2O)cc1Nc1ccnc(C(F)(F)F)c1", "NCI-H522 lung", "GI50", "3.22 µM"],
  ["C=C1CO[C@@H]2C[C@@H]1CCC1(C)OC1CC/C(C)=C/CC[C@@]2(C)O (some centres not stated)", "NCI-H522 lung", "GI50", "30.5 µM"]
]}

Okay, now this compound:
# input compound: CN1CCN(c2cc(Nc3cc(C4CC4)[nH]n3)nc(Nc3ccc(CC(=O)NCc4cccc(F)c4)cc3)n2)CC1 ; wanted: its GI50
1.53 µM

###

# System: RXF-631 renal
# assay.details: NCI tumour cell line growth inhibition, 48 h
reported.metric: TGI

// below: answered molecules
{"columns": ["molecule", "assay.value"],
 "data": [
  ["Cc1ccc(Nc2ccc(Nc3ccc(C)cc3S(=O)(=O)O)c3c2C(=O)c2ccccc2C3=O)c(S(=O)(=O)O)c1", "> 100 µM"],
  ["NC(=S)N/N=C(\\C(=O)Nc1ccc(Cl)c(Cl)c1)C1=NN(c2ccccc2)C(c2cccc([N+](=O)[O-])c2)CC1=O (stereo not given)", "> 100 µM"],
  ["COC(=O)C(=O)C(C#N)c1ccc(Cl)c(Cl)c1 (stereo not given)", "> 100 µM"]
]}

# input molecule: COc1ccc(S(=O)(=O)N/N=C(\C)CN2C(=O)c3ccccc3C2=O)cc1 ; wanted: its TGI
> 100 µM

Request: Cn1cnc([N+](=O)[O-])c1Sc1nnc(C(F)(F)F)n1C
39.6 µM

Cited source for all entries: PubChem BioAssay (NCI)
